Target: UniProt P29089
Experiment: Displacement of [125-I]-labeled angiotensin II from Angiotensin II receptor, type 1 of rat uterine membranes
Format: cell membranes, Membrane
measurement label: IC50 (nM)
Only the number, expressed in nM, is required.

Some solved entries appear below for comparison.
compound | unit abbreviation | IC50
CCCCN1N=C(CCC)C(Cc2ccc(-c3ccccc3-c3nn[nH]n3)cc2)C1=O (configuration not stated) | nM | 500
CCCCc1nn(CCCC)c(=O)n1Cc1ccc(-c2ccccc2-c2nnn[nH]2)cc1 | nM | 5

Pending compound:
# IC50 lookup, item CCCCn1nc2n(c1=O)C(c1ccc(-c3ccccc3-c3nn[nH]n3)cc1)CCC2CCC (stereo in doubt; 12)
1800

---

Biological target: Type-1 angiotensin II receptor B (Rattus norvegicus, UniProt P29089)
Sequence (P29089 whole entry): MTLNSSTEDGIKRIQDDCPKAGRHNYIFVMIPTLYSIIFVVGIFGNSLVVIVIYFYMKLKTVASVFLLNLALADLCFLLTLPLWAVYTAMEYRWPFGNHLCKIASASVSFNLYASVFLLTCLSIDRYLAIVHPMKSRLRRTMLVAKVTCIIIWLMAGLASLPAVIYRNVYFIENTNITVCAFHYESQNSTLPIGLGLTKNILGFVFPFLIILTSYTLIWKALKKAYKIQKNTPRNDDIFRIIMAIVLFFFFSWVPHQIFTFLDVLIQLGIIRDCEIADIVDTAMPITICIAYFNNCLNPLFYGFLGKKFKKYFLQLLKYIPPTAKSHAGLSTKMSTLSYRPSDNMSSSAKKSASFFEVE
Assay: Displacement of [125-I]-labeled angiotensin II from Angiotensin II receptor, type 1 of rat uterine membranes
Format: cell membranes, Membrane
pIC50: −log10 of the molar value.
Let's look at some molecules and their measured pIC50.

molecule | tested target | pIC50
CCCCn1nc(C(Br)CCC)n(Cc2ccc(-c3ccccc3-c3nnn(C(c4ccccc4)(c4ccccc4)c4ccccc4)n3)cc2)c1=O (stereo unspecified) | Type-1 angiotensin II receptor B (Rattus norvegicus, UniProt P29089) | < 5.00

Which pIC50 is reported with Type-1 angiotensin II receptor B (Rattus norvegicus, UniProt P29089) for this entry: CCCCn1nc(C(CCC)CCBr)n(Cc2ccc(-c3ccccc3-c3nnn(C(c4ccccc4)(c4ccccc4)c4ccccc4)n3)cc2)c1=O (stereo unspecified) ?
< 5.00

Follow-up item: CCCC1CCC(c2ccc(-c3ccccc3-c3nnn[nH]3)cc2)n2c1n[nH]c2=O (stereo unspecified)
< 5.00

Follow-up item: CCCCn1nc2n(c1=O)C(c1ccc(-c3ccccc3-c3nn[nH]n3)cc1)CCC2CCC (stereo in doubt; 13)
5.80

Follow-up item: CCCCc1ncc2n1C(c1ccc(-c3ccccc3-c3nnn[nH]3)cc1)CC=C2 (stereo unspecified)
< 5.00

Follow-up item: CCCCN1N=C(CCC)/C(=C/c2ccc(-c3ccccc3-c3nn[nH]n3)cc2)C1=O
4.35

---

Let's look at some molecules and their measured IC50.
Target: Type-1 angiotensin II receptor B (Rattus norvegicus, UniProt P29089)
Sequence (P29089 whole entry): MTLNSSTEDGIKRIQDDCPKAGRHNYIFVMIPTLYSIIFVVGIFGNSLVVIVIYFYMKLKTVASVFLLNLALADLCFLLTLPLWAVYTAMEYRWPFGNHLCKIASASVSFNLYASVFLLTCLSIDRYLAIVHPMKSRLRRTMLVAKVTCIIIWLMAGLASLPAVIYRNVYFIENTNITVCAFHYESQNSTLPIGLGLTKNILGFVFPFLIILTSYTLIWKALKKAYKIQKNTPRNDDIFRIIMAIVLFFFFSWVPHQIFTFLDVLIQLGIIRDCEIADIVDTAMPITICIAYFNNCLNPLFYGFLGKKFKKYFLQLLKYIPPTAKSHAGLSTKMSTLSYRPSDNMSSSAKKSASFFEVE
Assay: Inhibition of [125-I]-labeled angiotensin II binding to AT1 receptor in rat uterine membranes
Assay type: cell membranes, Membrane

Some solved entries appear below for comparison.
molecule | tested target | endpoint result
CCCCc1ncc2n1[C@H](c1ccc(-c3ccccc3-c3nnn(C(c4ccccc4)(c4ccccc4)c4ccccc4)n3)cc1)C[C@@H](Br)[C@@H]2N1C(=O)CCC1=O | Type-1 angiotensin II receptor B (Rattus norvegicus, UniProt P29089) | > 10 µM
CCCCc1cn(Cc2ccc(-c3ccccc3-c3nnn(C(c4ccccc4)(c4ccccc4)c4ccccc4)n3)cc2)c(CCCC)n1 | Type-1 angiotensin II receptor B (Rattus norvegicus, UniProt P29089) | > 10 µM

Which IC50 is reported with Type-1 angiotensin II receptor B (Rattus norvegicus, UniProt P29089) for this entry: CCCCn1nc2n(c1=O)C(c1ccc(-c3ccccc3-c3nn[nH]n3)cc1)CCC2 (stereo not given) ?
> 10 µM

Follow-up item: CCCCc1ncc2n1[C@H](c1ccc(-c3ccccc3-c3nn[nH]n3)cc1)CC[C@@H]2N1C(=O)CCC1=O
0.015 µM
